Target system: SIRT7 (Mus musculus)
Test: NAM inhibition assay (in vitro deacylation, LC-MS/MS)
Assay conditions: IC50, NAM (relative IC50), octanoyl H3K18 peptide substrate; wild-type SIRT7
pIC50: −log10 of the molar value.
Quantity measured: pIC50

Compound | Test result
NC(=O)c1cccnc1 [NAM, Nicotinamide] | 2.95

---

Target system: SIRT7 (Mus musculus, UniProt Q8BKJ9)
Sequence (Q8BKJ9 1-402): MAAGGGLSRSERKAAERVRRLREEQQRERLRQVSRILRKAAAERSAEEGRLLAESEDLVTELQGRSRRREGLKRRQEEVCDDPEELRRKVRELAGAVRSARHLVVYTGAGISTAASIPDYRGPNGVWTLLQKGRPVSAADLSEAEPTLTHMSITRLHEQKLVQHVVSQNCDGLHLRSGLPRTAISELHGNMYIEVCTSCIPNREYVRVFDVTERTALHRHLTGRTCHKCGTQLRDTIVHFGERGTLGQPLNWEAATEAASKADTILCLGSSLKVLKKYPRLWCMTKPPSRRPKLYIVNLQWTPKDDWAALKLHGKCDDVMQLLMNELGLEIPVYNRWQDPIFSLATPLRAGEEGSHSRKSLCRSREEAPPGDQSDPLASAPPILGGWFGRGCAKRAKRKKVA
Test: NAM inhibition assay (in vitro deacylation, LC-MS/MS)
Assay conditions: IC50, NAM (relative IC50), butyryl H3K18 peptide substrate; wild-type SIRT7
Quantity measured: IC50

Compound | Test result
NC(=O)c1cccnc1 [NAM, Nicotinamide] | 613 µM
